target.desc: T1, cynomolgus monkey GITR at the cell surface (cynomolgus monkey)
T1 construct: whole, on cells; also called cyno GITR+ cells
test.details: flow cytometry, cyno GITR-transfected murine blastoma cells, 10,000-13.7 ng/ml
reported.property: concentration at maximum MFI

I-C2 IgG1 (antibody, V domains shown, Human IgG1) VH: EVQLVESGGGLVQPGGSLRLSCAASGFSLSTSGYGVGWVRQAPGKGLEWLAHIWWDDDKYYVDSVKGRFTISRDNAKNSLYLQMNSLRAEDTAVYYCARTRLYFPFAYWGQGTLVTVSS VL: EIVLTQSPATLSLSPGERATLSCRASQNVGSNLAWYQQKPGQAPRLLIYSASNRYSGIPARFSGSGSGTDFTLTISSLEPEDFAVYYCQQYSTDPLTFGGGTKVEIK: ~1110 ng/mL
VH1/VL1 IgG1 (antibody, V domains shown, Full-length human IgG1; also called hVH1/VL1; G-VH1/VL1) VH: QVTLRESGPALVKPTQTLTLTCTFSGFSLSTSGMGVGWIRQPPGKALEWLAHIWWDDDKYYNPSLKSRLTISKDTSKNQVVLTMTNMDPVDTATYYCARTRRYFPFAYWGQGTLVTVSS VL: EIVMTQSPATLSVSPGERATLSCKASQNVGTNVAWYQQKPGQAPRLLIYSASYRYSGIPARFSGSGSGTEFTLTISSLQSEDFAVYYCQQYNTDPLTFGGGTKVEIK: ~1110 ng/mL

The binder listed as D-A6 IgG1 (antibody, V domains shown, Human IgG1) VH: EVQLVESGGGLVQPGGSLRLSCAASGFSLSTSGYGVGWVRQAPGKGLEWLAHIWWDDDKYYVDSVKGRFTISRDNAKNSLYLQMNSLRAEDTAVYYCARTRQYFPFAYWGQGTLVTVSS VL: EIVLTQSPATLSLSPGERATLSCRASQSVGSNLAWYQQKPGQAPRLLIYSASYRYTGIPARFSGSGSGTDFTLTISSLEPEDFAVYYCQQYSTDPLTFGGGTKVEIK shows concentration at maximum MFI equal to ~1110 ng/mL
